- assayText: MRT(0 to infinity) in Sprague-Dawley rat at 2 mg/kg, iv measured upto 12 hrs by UPLC-MS/ESI analysis
- Type: ADME, organism-based
- runParameters: in vivo
experimentalEndpoint: MRT inf (h)

>>> reportedvalue("COc1cc(-c2nccc3[nH]c(-c4cccc5c4ccn5C)nc23)cc(OC)c1OC")
1.86

* * *

- assayText: Acute toxicity in C57 mouse assessed as survival rate at 51.2 mg/kg, po administered daily for 14 days relative to control
- Assay type: organism-based
- runParameters: in vivo, time 14 day, read-out: Activity
experimentalEndpoint: survival at 336 h (%)

>>> reportedvalue("COc1cc(-c2nccc3[nH]c(-c4cccc5c4ccn5C)nc23)cc(OC)c1OC")
90
